# assay-method-text: pKa of functional groups
# Format: physicochemical
# condition-label: estimated; read-out: pKa of the NH2 (amino) group
metric: pKa

Memo: N[C@@H](Cc1cc(I)c(Oc2cc(I)c(O)c(I)c2)c(I)c1)C(=O)O , reported pKa: ~9

---

# Test system: matrigel plug angiogenesis
# assay-method-text: Mouse matrigel model of angiogenesis (plug hemoglobin)
# Type: in vivo, mice (C57BL/6NCr)
# condition-label: 10 μg/matrigel plug; numbers are T4 analogs of Example 12; n = 6-7; Control 0.3 ± 0.1
metric: Hemoglobin (mg/mL) ± SEM
Report as a plain number; the unit mg/mL is understood.

{"molecule": "CC(C)[Si](OC(=O)C(Cc1cc(I)c(Oc2cc(I)c(O)c(I)c2)c(I)c1)NC(=O)OC(C)(C)C)(C(C)C)C(C)C (stereo not shown) [T4 analog 13]", "quantitative-result": 0.3}
{"molecule": "CC(C)[Si](OC(=O)C(Cc1cc(I)c(Oc2cc(I)c(OCC3CO3)c(I)c2)c(I)c1)NC(=O)OC(C)(C)C)(C(C)C)C(C)C (stereo not shown) [T4 analog 15]", "quantitative-result": 0.3}

Hemoglobin (mg/mL) ± SEM measured on CNC(Cc1cc(I)c(Oc2cc(I)c(O)c(I)c2)c(I)c1)C(=O)[O-].O.O.[K+] (stereo not shown) [T4 analog 10] = 0.8

Query CC(C)(C)OC(=O)NC(Cc1cc(I)c(Oc2cc(I)c(OCC3CO3)c(I)c2)c(I)c1)C(=O)OCC1CO1 (stereo not shown) [T4 analog 14] yields Hemoglobin (mg/mL) ± SEM of 0.3

---

metric: melting point (°C)
Quick reminder: number only, in °C, skip the unit.

Here is how some compounds turned out for melting point.
{"compound": "O=C(Cc1cc(I)c(Oc2cc(I)c(OCCCl)c(I)c2)c(I)c1)NC1CCCCC1", "melting point, °C": 263}
{"compound": "CC(C)[Si](OC(=O)C(Cc1cc(I)c(Oc2cc(I)c(OCC3CO3)c(I)c2)c(I)c1)NC(=O)OC(C)(C)C)(C(C)C)C(C)C (stereo not shown) (hydrate or solvate)", "melting point, °C": 109}
{"compound": "CC(C)[Si](OC(=O)Cc1cc(I)c(Oc2cc(I)c(OCC3CO3)c(I)c2)c(I)c1)(C(C)C)C(C)C (stereo not shown)", "melting point, °C": 120}
{"compound": "O=C(Cc1cc(I)c(Oc2cc(I)c(OCC3CO3)c(I)c2)c(I)c1)NC1CCCCC1 (stereo not shown)", "melting point, °C": 242}
{"compound": "CC(C)(C)OC(=O)NC(Cc1cc(I)c(Oc2cc(I)c(OCC3CO3)c(I)c2)c(I)c1)C(=O)OCC1CO1 (stereo not shown) (hydrate or solvate)", "melting point, °C": 105}

The compound CC(C)[Si](OC(=O)Cc1cc(I)c(Oc2cc(I)c(O)c(I)c2)c(I)c1)(C(C)C)C(C)C showed melting point equal to 146

compound O=C(Cc1cc(I)c(Oc2cc(I)c(OCC3CO3)c(I)c2)c(I)c1)OCC1CO1 (stereo not shown) , melting point observed: 116

---

# assay-method-text: pKa of functional groups
# Assay type: physicochemical
# condition-label: estimated; read-out: pKa of the COOH (carboxylic acid) group
metric: pKa

response.value for N[C@@H](Cc1cc(I)c(Oc2cc(I)c(O)c(I)c2)c(I)c1)C(=O)O (field: pKa) = ~2

Reference source: patent US8802240B2
